Source listed as ChEMBL document CHEMBL3097995.

Entries with reported Ki on Inosine-5'-monophosphate dehydrogenase 2 (Homo sapiens, UniProt P12268)
One number for each entry, in µM.

Consider the worked cases shown below.
> print(dat)
                                chem.smiles  test.result
1  COc1c(C)c2c(c(O)c1CCOP(=O)(O)CP(=O)(O)OC[C@H]1O[C@@H](n3cnc4c(N)nc(-c5cccs5)nc43)[C@H](O)[C@@H]1O)C(=O)OC2        0.056
2  COc1c(C)c2c(c(O)c1C/C=C(\C)CCC(=O)N[C@H](C(=O)O)C(C)C)C(=O)OC2        0.175
3  COc1c(C)c2c(c(O)c1CCOP(=O)(O)CP(=O)(O)OC[C@H]1O[C@@H](n3cnc4c(N)nc(C(F)(F)F)nc43)[C@H](O)[C@@H]1O)C(=O)OC2        0.015
4  COC(=O)[C@H](NC(=O)CC/C(C)=C/Cc1c(O)c2c(c(C)c1OC)COC2=O)C(C)C         1.96
5  COc1c(C)c2c(c(O)c1C/C=C(\C)CCC(=O)N[C@@H](C(=O)NC[C@H]1O[C@@H](n3cnc4c(N)ncnc43)[C@H](O)[C@@H]1O)C(C)C)C(=O)OC2        0.088

Each compound below has a recorded value; state its Ki.
1. COc1c(C)c2c(c(O)c1C/C=C(\C)CCC(=O)NCC(=O)NC[C@H]1O[C@@H](n3cnc4c(N)ncnc43)[C@H](O)[C@@H]1O)C(=O)OC2
2. COc1c(C)c2c(c(O)c1CCOP(=O)(O)CP(=O)(O)OC[C@H]1O[C@@H](n3cnc4c(N)cccc43)[C@H](O)[C@@H]1O)C(=O)OC2
3. COc1c(C)c2c(c(O)c1C/C=C(\C)CCC(=O)N[C@@H](CCSC)C(=O)O)C(=O)OC2
4. COc1c(C)c2c(c(O)c1C/C=C(\C)CCC(=O)N[C@H](C(=O)NC[C@H]1O[C@@H](n3cnc4c(N)ncnc43)[C@H](O)[C@@H]1O)C(C)C)C(=O)OC2
5. COC(=O)[C@H](CCSC)NC(=O)CC/C(C)=C/Cc1c(O)c2c(c(C)c1OC)COC2=O

Result:
1. 0.188
2. 0.165
3. 0.134
4. 0.07
5. 0.147

* * *

target: Inosine-5'-monophosphate dehydrogenase 1 (Homo sapiens, UniProt P20839)
Sequence (P20839 whole entry): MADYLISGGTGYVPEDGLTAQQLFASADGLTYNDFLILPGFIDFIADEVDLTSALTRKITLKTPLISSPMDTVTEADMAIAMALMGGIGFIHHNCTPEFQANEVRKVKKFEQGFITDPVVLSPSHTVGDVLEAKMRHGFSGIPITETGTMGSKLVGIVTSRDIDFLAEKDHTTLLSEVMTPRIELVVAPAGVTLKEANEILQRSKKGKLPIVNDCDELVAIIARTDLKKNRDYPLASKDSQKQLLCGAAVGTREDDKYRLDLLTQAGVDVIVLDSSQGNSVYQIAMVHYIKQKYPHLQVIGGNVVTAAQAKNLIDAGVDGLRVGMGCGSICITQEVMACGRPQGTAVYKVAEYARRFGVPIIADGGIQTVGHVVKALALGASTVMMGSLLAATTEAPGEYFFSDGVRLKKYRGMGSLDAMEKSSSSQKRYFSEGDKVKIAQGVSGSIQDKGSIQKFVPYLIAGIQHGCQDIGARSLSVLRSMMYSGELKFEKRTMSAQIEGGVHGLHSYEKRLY
Could you please report measured Ki for the items listed next?
Numbers only, in nM.

CHEM SMILES	RESULT TYPE	UNIT LABEL	TEST RESULT
COc1c(C)c2c(c(O)c1C/C=C(\C)CCC(=O)N[C@H](Cc1ccccc1)C(=O)NC[C@H]1O[C@@H](n3cnc4c(N)ncnc43)[C@H](O)[C@@H]1O)C(=O)OC2	Ki	nM	38
COc1c(C)c2c(c(O)c1C/C=C(\C)CCC(=O)N[C@H](Cc1ccccc1)C(=O)O)C(=O)OC2	Ki	nM	4310

For every record below, what is its Ki?
1. COc1c(C)c2c(c(O)c1C/C=C(\C)CCC(=O)N[C@@H](Cc1c[nH]c3ccccc13)C(=O)NC[C@H]1O[C@@H](n3cnc4c(N)ncnc43)[C@H](O)[C@@H]1O)C(=O)OC2
2. COc1c(C)c2c(c(O)c1C/C=C(\C)CCC(=O)N[C@@H](C(=O)O)C(C)C)C(=O)OC2
3. COc1c(C)c2c(c(O)c1C/C=C(\C)CCC(=O)N[C@@H](C(=O)NC[C@H]1O[C@@H](n3cnc4c(N)ncnc43)[C@H](O)[C@@H]1O)C(C)C)C(=O)OC2
4. COc1c(C)c2c(c(O)c1C/C=C(\C)CCC(=O)OC[C@H]1O[C@@H](n3cnc4c(N)ncnc43)[C@H](O)[C@@H]1O)C(=O)OC2

Result:
[164, 2030, 3, 163]
